Test system: Mycobacterium tuberculosis
experiment: Antitubercular activity against Mycobacterium tuberculosis H37Rv ATCC 27294 at 100 ug/ml measured every 24 hr by BACTEC 460 radiometric assay
Format: functional, organism-based
Calls of active or inactive are those of the source. The rule behind the calls is not given here.
quantity_kind: Activity

Consider the reported Activity for these molecules:
mol_smiles=COc1ccc([C@@H]2CC(=O)c3c(O)cc(O[C@@H]4O[C@H](CO[C@@H]5O[C@@H](C)[C@H](O)[C@@H](O)[C@H]5O)[C@@H](O)[C@H](O)[C@H]4O)cc3O2)cc1O study_target="Mycobacterium tuberculosis" reported_value=inactive
mol_smiles=C[C@H]1O[C@H](Oc2c(-c3ccc(O)cc3)oc3cc(O)cc(O)c3c2=O)[C@@H](O)[C@@H](O)[C@@H]1O study_target="Mycobacterium tuberculosis" reported_value=inactive
mol_smiles=COc1ccc(-c2oc3cc(OC)c(OC)c(O)c3c(=O)c2OC)cc1O study_target="Mycobacterium tuberculosis" reported_value=inactive
mol_smiles=O=c1cc(-c2ccccc2)oc2cc(O)cc(O)c12 study_target="Mycobacterium tuberculosis" reported_value=inactive

Next molecule, please.
Please report the measured Activity for `O=c1c(O)c(-c2ccccc2)oc2cc(O)cc(O)c12`
inactive
